Measured ED (20%) values are reported for all entries that follow.
Test system: QT interval
run-description: QT interval prolongation (ECG, class III action) in anesthetized guinea pigs
Type: in vivo, Pirbright white guinea pigs
condition-summary: Cavia porcellus; guinea pigs, urethane anesthesia, intravenous; dose for 20% QT prolongation calculated from log dose (mg/kg) vs relative QT prolongation; read-out: Prolongation of the QT interval ED20%
Counter-ions that a name gives are not always drawn.
measured-endpoint: ED (20%)

compound: CC1CN=C2c3ccccc3N3CCCC3(c3ccccc3)N21 (centres unmarked) [Example 24, hydrochloride]
measured-endpoint: ED (20%)
recorded-measurement: 0.29 mg/kg
//
compound: Clc1ccc(C23CCCN2c2ccccc2C2=NCCN23)cc1Cl (centres unmarked)
measured-endpoint: ED (20%)
recorded-measurement: 1.5 mg/kg
//
compound: COc1ccc(C23CCCN2c2ccccc2C2=NCCCN23)cc1 (centres unmarked) [Example 35, hydrochloride]
measured-endpoint: ED (20%)
recorded-measurement: 0.63 mg/kg
//
compound: O=[N+]([O-])c1ccc(C23CCCN2c2ccccc2C2=NCCCN23)cc1 (centres unmarked)
measured-endpoint: ED (20%)
recorded-measurement: 0.61 mg/kg
//
compound: CC1(C)CCN=C2c3ccccc3N3CCCC3(c3ccc([N+](=O)[O-])cc3)N21 (centres unmarked) [Example 47, hydrochloride]
measured-endpoint: ED (20%)
recorded-measurement: 0.52 mg/kg
//
compound: Fc1ccc(C23CCCN2c2cc(Cl)ccc2C2=NCCCN23)cc1 (centres unmarked) [Example 38, hydrochloride]
measured-endpoint: ED (20%)
recorded-measurement: 0.83 mg/kg
//
compound: COc1ccc(C23CCCN2c2ccccc2C2=NCCN23)cc1 (centres unmarked)
measured-endpoint: ED (20%)
recorded-measurement: 0.61 mg/kg
//
compound: O=[N+]([O-])c1cccc(C23CCCN2c2ccccc2C2=NCCCN23)c1 (centres unmarked)
measured-endpoint: ED (20%)
recorded-measurement: 0.56 mg/kg
//
compound: Clc1ccc2c(c1)C1=NCCCN1C1(c3ccccc3)CCCN21 (centres unmarked) [Example 29, hydrochloride]
measured-endpoint: ED (20%)
recorded-measurement: 0.55 mg/kg
//
compound: CC1(C)CN=C2c3ccccc3N3CCCC3(c3ccccc3)N2C1 (centres unmarked) [Example 41, hydrochloride]
measured-endpoint: ED (20%)
recorded-measurement: 0.46 mg/kg
//
compound: CC1(C)CN=C2c3ccccc3N3CCCC3(c3ccc([N+](=O)[O-])cc3)N2C1 (centres unmarked) [Example 42, hydrochloride]
measured-endpoint: ED (20%)
recorded-measurement: 0.78 mg/kg
//
compound: c1ccc(C23CCCN2c2ccccc2C2=NCCN23)cc1 (centres unmarked) [Example 50, hydrochloride]
measured-endpoint: ED (20%)
recorded-measurement: 0.25 mg/kg
//
compound: Cc1ccc(C23CCCN2c2ccccc2C2=NCCN23)cc1 (centres unmarked)
measured-endpoint: ED (20%)
recorded-measurement: 1 mg/kg
//
compound: Fc1ccc(C23CCCN2c2ccccc2C2=NCCCN23)cc1 (centres unmarked)
measured-endpoint: ED (20%)
recorded-measurement: 0.42 mg/kg
//
compound: CC1(C)CCN=C2c3ccccc3N3CCCC3(c3ccccc3)N21 (centres unmarked) [Example 44, hydrochloride]
measured-endpoint: ED (20%)
recorded-measurement: 0.49 mg/kg
//
compound: Fc1ccc(C23CCCN2c2ccccc2C2=NCCN23)cc1 (centres unmarked)
measured-endpoint: ED (20%)
recorded-measurement: 0.21 mg/kg
//
compound: COc1cc2c(cc1OC)N1CCCC1(c1ccccc1)N1CCN=C21 (centres unmarked)
measured-endpoint: ED (20%)
recorded-measurement: 1 mg/kg
//
compound: Clc1ccc(C23CCCN2c2ccccc2C2=NCCCN23)cc1 (centres unmarked)
measured-endpoint: ED (20%)
recorded-measurement: 1.5 mg/kg
//
compound: Clc1ccc2c(c1)N1CCCC1(c1ccccc1)N1CCCN=C21 (centres unmarked) [Example 37, hydrochloride]
measured-endpoint: ED (20%)
recorded-measurement: 0.69 mg/kg
//
compound: CC1(C)CN=C2c3ccccc3N3CCCC3(c3ccc([N+](=O)[O-])cc3)N21 (centres unmarked) [Example 46, hydrochloride]
measured-endpoint: ED (20%)
recorded-measurement: 0.55 mg/kg
//
compound: c1ccc(C23CCCN2c2ccccc2C2=NCCCN23)cc1 (centres unmarked) [Example 49, hydrochloride]
measured-endpoint: ED (20%)
recorded-measurement: 0.32 mg/kg
//
compound: Fc1ccc(C23CCCN2c2cc(Cl)ccc2C2=NCCN23)cc1 (centres unmarked) [Example 15, hydrochloride]
measured-endpoint: ED (20%)
recorded-measurement: 0.43 mg/kg
//
compound: O=[N+]([O-])c1ccc(C23CCCN2c2ccccc2C2=NCCN23)cc1 (centres unmarked) [Example 21, hydrochloride]
measured-endpoint: ED (20%)
recorded-measurement: 0.46 mg/kg
//
compound: c1csc(C23CCCN2c2ccccc2C2=NCCCN23)c1 (centres unmarked)
measured-endpoint: ED (20%)
recorded-measurement: 0.58 mg/kg
//
compound: Clc1ccc(C23CCCN2c2ccccc2C2=NCCN23)s1 (centres unmarked) [Example 19, hydrochloride]
measured-endpoint: ED (20%)
recorded-measurement: 1.4 mg/kg
//
compound: CS(=O)(=O)Oc1ccc(C23CCCN2c2ccccc2C2=NCCN23)cc1 (centres unmarked) [Example 53, hydrochloride]
measured-endpoint: ED (20%)
recorded-measurement: 1 mg/kg

The measurements presented in this section are drawn from patent US5214047A.
